Test system: SK-MEL-2 melanoma
protocol: NCI tumour cell line growth inhibition, 48 h
measure: TGI

compound: C=C(Cl)C(C)(Cl)CCC(Cl)C(C)C (stereo unspecified)
measure: TGI
reported: > 100 µM
--
compound: CCCCCCCCCCOCCOCCOCCOCCCCC(O)CCCCCCCC1=C[C@H](C)OC1=O (stereo partly specified)
measure: TGI
reported: 25 µM
--
compound: Cc1ccc(C(=O)Nc2ncn(C3CC(O)C(CO)O3)c(=O)n2)cc1 (stereo unspecified)
measure: TGI
reported: > 100 µM

Enter recorded TGI with SK-MEL-2 melanoma for CC(=O)Nc1cc2nc3n(c2cc1C)CCC3OC(C)=O (stereo unspecified) here.
> 100 µM

Enter recorded TGI with SK-MEL-2 melanoma for COc1cc(C2OC[C@@H]3C(=O)OC[C@H]23)cc(O)c1OC (stereo partly specified) here.
> 100 µM

Enter recorded TGI with SK-MEL-2 melanoma for NC(N)=Nc1ccc(/C=C2\C=Cc3ccccc32)cc1 here.
11.6 µM

Enter recorded TGI with SK-MEL-2 melanoma for COC(=O)/N=[N+](\[O-])C(c1ccccc1)c1ccccc1 here.
> 100 µM

Enter recorded TGI with SK-MEL-2 melanoma for O=[N+]([O-])C(/C=C(\Cl)[N+](=O)[O-])=C(N1CCCCC1)N1CCCCC1 here.
> 100 µM

Enter recorded TGI with SK-MEL-2 melanoma for COc1cc(C2c3cc4c(cc3OC(NCCO)C2C)OCO4)cc(OC)c1O (stereo unspecified) here.
36.9 µM

Enter recorded TGI with SK-MEL-2 melanoma for NC(N)=N/N=C/c1c(-c2cccnc2)nc2sc(Cl)cn12 here.
> 100 µM

Enter recorded TGI with SK-MEL-2 melanoma for CCOC(=O)C(NC(=O)CC)(Nc1ccc(F)cc1F)C(F)(F)F (stereo unspecified) here.
> 100 µM

###

System: SF-539 CNS
protocol: NCI tumour cell line growth inhibition, 48 h
measure: TGI

Example cases with answers are listed next.
molecule: Cc1ccccc1C(C(=O)NC1CCCCC1)N(C(=O)CNc1ncccc1F)c1cccc(F)c1 (stereo not given)
TGI: 81.7 µM
//
molecule: CC(=O)NNc1nc(C)c(C(=O)/C=C/c2ccc(Cl)c(Cl)c2)s1
TGI: > 100 µM
//
molecule: O=C1C=C(c2ccccc2)O/C1=C\C(=O)c1ccc(Cl)cc1
TGI: > 100 µM

Tell us which TGI value is on record for Cn1cc(C2=C(c3cn(CCCCCO)c4ccccc34)C(=O)NC2=O)c2ccccc21
8.55 µM

Tell us which TGI value is on record for Cc1cn(C2CCN(CC3COC(C)(C)O3)O2)c(=O)[nH]c1=O (stereo not given)
> 100 µM

Tell us which TGI value is on record for CN1CC2=C(NC(=S)NC2c2ccccc2Cl)/C(=C/c2ccccc2Cl)C1 (stereo not given)
> 100 µM

Tell us which TGI value is on record for COc1ccc(OC)c(/C=C/c2ccnc3ccccc23)c1
0.671 µM

Tell us which TGI value is on record for CC(C(=O)n1ccnc1)N1c2ccccc2Sc2ccccc21 (stereo not given)
> 100 µM

Tell us which TGI value is on record for Cc1ccc(C(=O)N/N=C(\N=Nc2ccccc2Cl)c2ccc(N(C)C)cc2)cc1
> 100 µM

Tell us which TGI value is on record for Cc1cc2c(cc1Cl)SC(c1ccccc1O)NS2(=O)=O (stereo not given)
> 100 µM

Tell us which TGI value is on record for COc1ccc(N=Nc2c(N)nn(C)c2N)cc1
> 100 µM

Tell us which TGI value is on record for C(#CC1(Nc2ccccc2)CCN(Cc2ccccc2)CC1)C1(Nc2ccccc2)CCN(Cc2ccccc2)CC1
34.9 µM

Tell us which TGI value is on record for CCCC[C@H]1C(=O)O[C@H](C)[C@H](NC(=O)c2cccc(NC=O)c2OC)C(=O)O[C@@H](C)[C@@H]1OC(=O)CC(C)C (tested in a mixture with another compound)
51.9 µM

Tell us which TGI value is on record for Cc1ccc(C(=O)Nc2ncn(C3CC(O)C(CO)O3)c(=O)n2)cc1 (stereo not given)
> 100 µM

Tell us which TGI value is on record for CC(C)OP(=O)(OC(C)C)C(=NCCN=C(NNc1ccccc1[N+](=O)[O-])P(=O)(OC(C)C)OC(C)C)NNc1ccccc1[N+](=O)[O-]
> 100 µM

Tell us which TGI value is on record for COc1cc(CCNC(=O)OC(C)(C)C)c2c(c1OC)SSSSS2
10.4 µM

Tell us which TGI value is on record for CC(C)C(Sc1nc(-c2ccccc2)c(-c2ccccc2)[nH]1)c1n[nH]c(=S)n1-c1ccccc1 (stereo not given)
40.4 µM

Tell us which TGI value is on record for O=[N+]([O-])C(/C=C(\Cl)[N+](=O)[O-])=C(N1CCCCC1)N1CCCCC1
56.7 µM

Tell us which TGI value is on record for CN(/N=C\c1ccnc2ccccc12)c1ccccc1
71.6 µM

Tell us which TGI value is on record for CCCCCCCCCCOC(=O)NCCC
> 100 µM
